tested on: Enterococcus faecalis; assay: In vitro for antibacterial activity against Enterococcus faecalis strain STCO-19; format: functional
# maps each entry to its MIC
MEASURED METRIC: MIC (µg/mL)

> print(dat)
                                    molecule  readout.number
 1  CC(=O)NC[C@H]1CN(c2ccc(C(=O)C(C)C)cc2)C(=O)O1               1
 2  CC(=O)NC[C@H]1CN(c2ccc(C(C)O)cc2)C(=O)O1 (some centres undefined)               4
 3  CCC(O)c1ccc(N2C[C@H](CNC(C)=O)OC2=O)cc1 (some centres undefined)              64
 4  CC(=O)NCC1CN(c2ccc(Cl)cc2)C(=O)O1 (racemic)              64
 5      CCSc1ccc(N2C[C@H](CNC(C)=O)OC2=O)cc1               2
 6  CCCS(=O)(=O)c1ccc(N2C[C@H](CNC(C)=O)OC2=O)cc1              32
 7       CSc1ccc(N2C[C@H](CNC(C)=O)OC2=O)cc1               4
 8  CC(=O)NC[C@@H]1CN(c2ccc(S(C)=O)cc2)C(=O)O1 (some centres undefined)               4
 9    CC(=O)NC[C@H]1CN(c2ccc(C=O)cc2)C(=O)O1               8
10  CCCC(=O)c1ccc(N2C[C@H](CNC(C)=O)OC2=O)cc1            0.25
11  CC(=O)NC[C@H]1CN(c2ccc(C(C)=O)cc2)C(=O)O1 [DUP-721]               1
12  CC(=O)NC[C@H]1CN(c2ccc(C(C)(C)O)cc2)C(=O)O1               4
13  CC(=O)NC[C@H]1CN(c2ccc(/C=N\O)cc2)C(=O)O1              16
14  CC(=O)NC[C@H]1CN(c2ccc(/C(C)=N\O)cc2)C(=O)O1               2
15  CCS(=O)(=O)c1ccc(N2C[C@H](CNC(C)=O)OC2=O)cc1               8
16      CC(=O)NC[C@H]1CN(c2ccc(N)cc2)C(=O)O1             128
17  CCOC(=O)c1ccc(N2CC(CNC(C)=O)OC2=O)cc1 (racemic)               4
18  CC(=O)NC[C@H]1CN(c2ccc([S+](C)[O-])cc2)C(=O)O1 (some centres undefined)               4
19       CCc1ccc(N2C[C@H](CNC(C)=O)OC2=O)cc1               8

* * *

tested on: Enterococcus faecalis; assay: In vitro for antibacterial activity against Enterococcus faecalis strain STCO-19; assay type: functional
Classify: True when MIC is strictly less than 8 µg/mL; False when MIC is not.

> print(dat)
                                   molecule  category.label
1  CC(=O)NCC1CN(c2ccc(C(C)C)cc2)C(=O)O1 (racemic)            True
2  CC(=O)NC[C@H]1CN(c2ccc(C(=O)CCl)cc2)C(=O)O1            True
3  CC(=O)NC[C@H]1CN(c2ccc(C(=O)COC(C)=O)cc2)C(=O)O1            True
4         CC(=O)NC[C@H]1CN(c2ccccc2)C(=O)O1           False
5  COc1ccc(N2CC(CNC(C)=O)OC2=O)cc1 (racemic)           False
6  CCC(=O)c1ccc(N2C[C@H](CNC(C)=O)OC2=O)cc1            True
7  CC(=O)NC[C@H]1CN(c2ccc(Sc3ccccc3)cc2)C(=O)O1           False
8      CC(=O)NC[C@H]1CN(c2ccc(C)cc2)C(=O)O1           False

* * *

system: Enterococcus faecalis; assay: In vitro for antibacterial activity against Enterococcus faecalis strain STCO-19; format: functional
# maps each entry to its MIC
MEASURED METRIC: MIC

> print(dat)
                                    compound  measured.metric    result
 1  CC(=O)NC[C@H]1CN(c2ccc(C(O)C(C)C)cc2)C(=O)O1 (some centres not stated)              MIC   8 µg/mL
 2  CC(=O)NC[C@H]1CN(c2ccc(C(F)(F)C(F)(F)F)cc2)C(=O)O1              MIC   2 µg/mL
 3  CC[S+]([O-])c1ccc(N2CC(CNC(C)=O)OC2=O)cc1 (single isomer, unassigned)              MIC  16 µg/mL
 4  CC(=O)NC[C@H]1CN(c2ccc([S+]([O-])C(F)(F)F)cc2)C(=O)O1 (some centres not stated)              MIC   2 µg/mL
 5      C#Cc1ccc(N2C[C@H](CNC(C)=O)OC2=O)cc1              MIC  16 µg/mL
 6  CC(=O)NCC(=O)c1ccc(N2C[C@H](CNC(C)=O)OC2=O)cc1              MIC  16 µg/mL
 7     CCCSc1ccc(N2C[C@H](CNC(C)=O)OC2=O)cc1              MIC   8 µg/mL
 8  CC(=O)NCC1CN(c2ccc(Oc3ccccc3)cc2)C(=O)O1 (racemic)              MIC  64 µg/mL
 9  CC(=O)NCC1CN(c2ccc(C#N)cc2)C(=O)O1 (racemic)              MIC  16 µg/mL
10  COC(=O)c1ccc(N2C[C@H](CNC(C)=O)OC2=O)cc1              MIC   2 µg/mL
11  CC(=O)NC[C@H]1CN(c2ccc(S(=O)(=O)CF)cc2)C(=O)O1              MIC   1 µg/mL
12  CC(=O)NC[C@H]1CN(c2ccc(SC(F)(F)F)cc2)C(=O)O1              MIC   4 µg/mL
13  CCCC(O)c1ccc(N2C[C@H](CNC(C)=O)OC2=O)cc1 (some centres not stated)              MIC  32 µg/mL
14  CCC/C(=N/O)c1ccc(N2C[C@H](CNC(C)=O)OC2=O)cc1              MIC   4 µg/mL
15    CCCCOc1ccc(N2C[C@H](CNC(C)=O)OC2=O)cc1              MIC  16 µg/mL
16  CC(=O)NC[C@H]1CN(c2ccc(C(C)(C)C)cc2)C(=O)O1              MIC   2 µg/mL
17      CCCc1ccc(N2C[C@H](CNC(C)=O)OC2=O)cc1              MIC   4 µg/mL
18  CC(=O)Cc1ccc(N2C[C@H](CNC(C)=O)OC2=O)cc1              MIC   8 µg/mL
19  CCN(CC)c1ccc(N2C[C@H](CNC(C)=O)OC2=O)cc1              MIC  16 µg/mL
20      CC(=O)NC[C@H]1CN(c2ccc(I)cc2)C(=O)O1              MIC   8 µg/mL
21     CC(=O)NC[C@H]1CN(c2ccc(Br)cc2)C(=O)O1              MIC   8 µg/mL
22  CC(=O)NC[C@H]1CN(c2ccc(S(=O)(=O)C(F)(F)F)cc2)C(=O)O1              MIC   2 µg/mL

* * *

tested on: Enterococcus faecalis; assay: In vitro for antibacterial activity against Enterococcus faecalis strain STCO-19; assay type: functional
MEASURED METRIC: MIC (µg/mL)

> print(dat)
                                 cpd.smiles      system.under.test  units.text  readout.number
1  CC(=O)NC[C@H]1CN(c2ccc(C(F)(F)F)cc2)C(=O)O1  Enterococcus faecalis       µg/mL               8
2      C=Cc1ccc(N2C[C@H](CNC(C)=O)OC2=O)cc1  Enterococcus faecalis       µg/mL               8
3  CC(=O)NC[C@H]1CN(c2ccc(C(=O)CBr)cc2)C(=O)O1  Enterococcus faecalis       µg/mL               8
